Biological target: Jak2 (UniProt O60674)
Sequence (O60674 whole entry, looked up): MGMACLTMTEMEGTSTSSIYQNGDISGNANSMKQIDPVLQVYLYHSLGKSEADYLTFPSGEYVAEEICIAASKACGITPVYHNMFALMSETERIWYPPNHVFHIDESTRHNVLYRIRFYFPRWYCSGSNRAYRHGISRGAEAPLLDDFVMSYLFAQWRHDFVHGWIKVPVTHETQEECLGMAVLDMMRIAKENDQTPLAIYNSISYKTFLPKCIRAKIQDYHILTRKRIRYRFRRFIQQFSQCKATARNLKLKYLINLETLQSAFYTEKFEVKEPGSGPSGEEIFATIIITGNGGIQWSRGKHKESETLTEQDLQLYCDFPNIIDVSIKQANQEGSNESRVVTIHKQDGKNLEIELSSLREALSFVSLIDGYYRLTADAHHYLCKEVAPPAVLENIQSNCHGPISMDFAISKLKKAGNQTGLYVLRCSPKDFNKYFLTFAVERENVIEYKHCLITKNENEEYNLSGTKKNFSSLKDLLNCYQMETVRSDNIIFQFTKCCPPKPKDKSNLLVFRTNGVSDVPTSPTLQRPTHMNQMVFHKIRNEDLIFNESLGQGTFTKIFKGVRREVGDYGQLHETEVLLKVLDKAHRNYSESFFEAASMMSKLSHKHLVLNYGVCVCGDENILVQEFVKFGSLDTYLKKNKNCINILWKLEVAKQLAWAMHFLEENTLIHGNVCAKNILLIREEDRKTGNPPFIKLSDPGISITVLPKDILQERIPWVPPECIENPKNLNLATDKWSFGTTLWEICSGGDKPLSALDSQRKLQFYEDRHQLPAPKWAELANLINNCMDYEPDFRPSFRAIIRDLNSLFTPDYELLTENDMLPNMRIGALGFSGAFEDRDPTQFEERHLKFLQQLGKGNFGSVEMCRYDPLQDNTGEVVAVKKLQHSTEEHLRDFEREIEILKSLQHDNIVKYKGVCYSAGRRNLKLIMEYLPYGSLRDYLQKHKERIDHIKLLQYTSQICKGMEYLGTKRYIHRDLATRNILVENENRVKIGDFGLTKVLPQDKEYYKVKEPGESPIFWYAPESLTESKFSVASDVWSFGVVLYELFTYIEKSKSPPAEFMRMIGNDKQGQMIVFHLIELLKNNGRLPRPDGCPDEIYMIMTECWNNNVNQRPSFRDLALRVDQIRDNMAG
Assay: phosphorylation enrichment, bacterial display (enrichment ratio); higher = better substrate or ligand; peptides without Tyr show the background;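 also: 11-residue human phosphosite peptides and single-mutation variants displayed on the E. coli surface, counted by deep sequencing, each peptide's frequency after selection divided by its frequency in the unselected input library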;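 also: frequency after pTyr selection over input frequency; kinase dosed for 20-30% of maximal phosphorylation in three min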
Each entry gets rule not met if its phosphorylation enrichment stays under 1, and rule met if its phosphorylation enrichment is 1 or above.

[[record]]
chain_sequence = "NLAAQYTTVGR [SGSH_Y240_D235N]"
label_class = "rule not met"

[[record]]
chain_sequence = "ALHRPYGCDVE [ABL2_Y80]"
label_class = "rule not met"

[[record]]
chain_sequence = "SSSNPYSTVTM [ACTN2_Y599]"
label_class = "rule not met"

[[record]]
chain_sequence = "MARDIYQASYY [LTK_Y672_R673Q]"
label_class = "rule not met"

[[record]]
chain_sequence = "DAVAVYDGKIS [SH2D1A_Y7_H8D]"
label_class = "rule not met"

[[record]]
chain_sequence = "LLVVLNKFRCF [PSEN1_Y154_Y154N_YF]"
label_class = "rule met"

[[record]]
chain_sequence = "LWKWRYEELKE [CCDC102B_Y299_K298R]"
label_class = "rule met"

[[record]]
chain_sequence = "LEQRPYRRGSE [KCNJ12_Y427_E430G]"
label_class = "rule not met"

[[record]]
chain_sequence = "TWQSMYGCDVG [HLA-B_Y123_L119W]"
label_class = "rule met"

